Data provenance: patent US20250376535A1

System tested: T1, 4-1BB Fc (human, UniProt Q07011 24-183)
T1 construct: also called rh-41BB; 41BB-hFc
T1 sequence (Q07011 24-183): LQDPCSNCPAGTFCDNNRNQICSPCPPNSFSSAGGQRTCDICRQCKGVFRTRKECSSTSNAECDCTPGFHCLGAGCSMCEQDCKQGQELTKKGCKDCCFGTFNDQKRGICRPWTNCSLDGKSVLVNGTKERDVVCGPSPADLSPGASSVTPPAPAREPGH
Method notes: ELISA, 4-1BB Fc coated, VHH at 50 nM
Quantity kind: OD450
Kindly provide the number alone.

Binder	Assay value
4-1BB-10 (VHH, not shown: small tags and cut ends) VHH: EVQLVESGGGLVQAGGSLRLSCAASGAIFSYNGMAWYRQAPGKQREFVAVITPDGTTKYGDSVKGRFTISRDITKNTVDLEMNSLKPEDTAVYTCAALRNSGSTSWGQGTQVTVSS	1.76
4-1BB-2 (VHH, not shown: small tags and cut ends) VHH: QVQLVESGGGLVQAGGSLRLSCAASGSIFSYNAMAWYRQAPGKQRELVALITSDRTTKYADSVKGRFTISRDDTKNTVDLEMNSLKPEDTAVYTCAALLNSARTSWGQGTQVTVSS	0.129
4-1BB-3 (VHH, not shown: small tags and cut ends) VHH: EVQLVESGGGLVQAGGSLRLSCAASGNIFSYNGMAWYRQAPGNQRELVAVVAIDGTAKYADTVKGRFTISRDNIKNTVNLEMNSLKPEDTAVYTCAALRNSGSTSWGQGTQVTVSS	0.183

Query :: Reported OD450 for 4-1BB-39 (VHH, not shown: small tags and cut ends) VHH: QVQLGSLGGGSAQPGGSLRLSCTGSGNVYDFVVMGWYRQFPGRQRELVANITGRASPNYVDSVKGRFTISRDNAQNTVHLQMNNLKVEDSAIYYCYAAQQLTTIAGVMTLDYWGSGTQVTVSS : what is it?
Result :: 0.065

Query :: Reported OD450 for 4-1BB-1 (VHH, not shown: small tags and cut ends) VHH: QVQLVESGGGLVQAGGSLRLSCAASENIFSFNAMAWYRQAPGKQRELVALITGDGTTKYADSVKGRFTIARLNAKNTVNLEMNSLKPEDTAVYTCAALRNSDRTSWGQGTQVTVSS : what is it?
Result :: 0.308

Query :: Reported OD450 for 4-1BB-36 (VHH, not shown: small tags and cut ends) VHH: EVQLVESGGGLVQPGGSLRLSCAASRRTFSSYTAGWFRQAPGKEREFVASIRWISGTTTYADSVNGRFTISRDIAKNTVYLQMNSLKPDDTAVYYCAVDLSSDNDYDYWGQGTQVTVSS : what is it?
Result :: 3.19
